measurement-target: BRD4(1) (amino acids 44-168) (Homo sapiens (Human), UniProt O60885)
measurement-notes: BRD4 binding strength, TR-FRET (HTRF) assay of BRD4(1) / acetylated histone H4 peptide interaction
details: inhibition of BRD4(1)/Ac-H4 peptide interaction
endpoint-label: IC50 (nM)
The reply should be a number in nM, with the unit left off.

Cc1nnc2n1-c1ccccc1C(c1ccc(Cl)cc1)=CC2CC(=O)N1CC(F)C1 (stereo in doubt) [Example 17]
90
Cc1nnc2n1-c1ccccc1C(c1ccc(Cl)cc1)=CC2Cc1nc(C(C)C)no1 (stereo in doubt) [Example 36]
90

// moving on: another record for IC50
Data request, read-out IC50, for Cc1nnc2n1-c1ccccc1C(c1ccc(Cl)cc1)=CC2Cc1nnc(-c2cccnc2)o1 (stereo not drawn) [Example 44] 90

###

System: MOLP-8 cells
measurement-notes: Cell proliferation (alamarBlue), MOLP-8
Format: cell-based
details: Homo sapiens, multiple myeloma cell line, 120 hours incubation
Catalogue of pIC50 readings, one per entry.
A value of pIC50 is the negative decimal logarithm of a concentration given in moles per litre.

Cc1nnc(CC2C=C(c3ccc(Cl)cc3)c3cc(-c4c(C)noc4C)ccc3-n3c(C)nnc32)o1 (stereo not drawn)
5.79
Cc1nnc(CC2C=C(c3ccc(Cl)cc3)c3ccccc3-n3c(C)nnc32)s1 (stereo not drawn) [Example 41]
6.39
Cc1nnc2n1-c1ccc(OC(F)(F)F)cc1C(c1ccc(Cl)cc1)=C[C@H]2CC(=O)N1CCN2C(=O)CCC2C1 (stereo partly drawn)
6.92
Cc1nnc2n1-c1ccccc1C(c1ccc(Cl)cc1)=C[C@H]2CC(=O)N1CC(Oc2ccccc2)C1
6.23
Cc1nc(CC2C=C(c3ccc(Cl)cc3)c3ccccc3-n3c(C)nnc32)no1 (stereo not drawn)
6.85

Data request, read-out pIC50, for Cc1nnc2n1-c1ccccc1C(c1ccc(Cl)cc1)=CC2CC(=O)N1CC2(COC2)C1 (stereo in doubt) 6.13

Queued: COc1ccc2c(c1)C(c1ccc(Cl)cc1)=CC(Cc1nnc(C)o1)c1nnc(C)n1-2 (stereo not drawn) 7.05

Queued: Cc1nnc2n1-c1ccccc1C(c1ccc(Cl)cc1)=C[C@H]2Cc1nnc(COCc2ccccc2)o1 6.38

Queued: Cc1nnc2n1-c1ccccc1C(c1cccc(Cl)c1)=CC2CC(=O)N1CC2(COC2)C1 (stereo not drawn) 5.89

###

Catalogue of pIC50 readings, one per entry.
measurement-target: BRD4(1) (amino acids 44-168) (Homo sapiens (Human))
measurement-notes: BRD4 binding strength, TR-FRET (HTRF) assay of BRD4(1) / acetylated histone H4 peptide interaction
details: inhibition of BRD4(1)/Ac-H4 peptide interaction
A value of pIC50 is the negative decimal logarithm of a concentration given in moles per litre.

Cc1nnc2n1-c1ccccc1C(c1cccc(Cl)c1)=CC2CC(=O)N1CC2(COC2)C1 (centres unmarked) [Example 10]
6.14

// moving on: another record for pIC50
Data request, read-out pIC50, for CCOC(=O)CC1C=C(c2ccc(Cl)cc2)c2ccccc2-n2c(C)nnc21 (centres unmarked) [Example 1] 6.74

###

measurement-target: BRD4(1) (amino acids 44-168) (Homo sapiens (Human), UniProt O60885)
measurement-notes: BRD4 binding strength, TR-FRET (HTRF) assay of BRD4(1) / acetylated histone H4 peptide interaction
details: inhibition of BRD4(1)/Ac-H4 peptide interaction
With a cut-off of 200 nM, any IC50 strictly below it is called t; any IC50 meeting it or above is called f.

// below: answered compounds
Cc1nnc2n1-c1ccccc1C(c1ccc(Cl)cc1)=CC2Cc1nnc(C2CC2)o1 (stereo not drawn)
t
Cc1nnc2n1-c1ccccc1C(c1cccc(Cl)c1)=CC2CC(=O)N1CC2(COC2)C1 (stereo in doubt) [Example 11]
f
Cc1nnc2n1-c1ccccc1C(c1ccc(Cl)cc1)=C[C@H]2CC(=O)N1CC(Oc2ccccc2)C1
f
Cc1nnc2n1-c1ccccc1C(c1ccc(Cl)cc1)=CC2CC(=O)N1C2CCC1CC(=O)C2 (stereo not drawn)
f
Cc1nnc(CC2C=C(c3ccc(Cl)cc3)c3ccccc3-n3c(C)nnc32)o1 (stereo not drawn) [Example 39]
t

For this compound, is IC50 lower than 200 nM? CCNC(=O)CC1C=C(c2ccc(Cl)cc2)c2ccccc2-n2c(C)nnc21 (stereo in doubt) [Example 13] t

Queued: Cc1nnc2n1-c1ccccc1C(c1ccc(Cl)cc1)=CC2CC(=O)N1CCOCC1 (stereo in doubt) [Example 15] t

Recorded values, source patent US9663523B2.
